Reported CC50 by item:
Test: Cellular toxicity assay in human PBM cells
Format: cell-based
Conditions: human, human PBM cells, read-out: Cytotoxicity

Below, 2 compounds whose answers are already recorded.
Cn1cc(C(=O)C(=O)N2CCOCC2)cc1C(=O)Nc1ccc(F)c(F)c1	> 100 µM
C=CCNC(=O)C(=O)c1cc(C(=O)Nc2ccc(F)c(F)c2)n(C)c1	> 100 µM

We next turn to a different compound, shown below.
## Input Tell me the measured CC50 of Cn1cc(NS(=O)(=O)c2ccccc2)cc1C(=O)Nc1ccc(F)c(F)c1 , please.
## Output 13.9 µM

###

Assay: Cellular toxicity assay in human PBM cells
Assay type: cell-based
Conditions: human, human PBM cells, read-out: Cytotoxicity
Reported CC50 by item:

Below, 3 compounds whose answers are already recorded.
Cc1c(C(=O)C(=O)NCc2nccn2C)c(C)n(C)c1C(=O)Nc1ccc(F)c(F)c1	> 100 µM
Cc1c(C(=O)C(=O)NCc2ccccn2)c(C)n(C)c1C(=O)Nc1ccc(F)c(F)c1	> 100 µM
C#CCNC(=O)C(=O)c1c(C)c(C(=O)Nc2ccc(F)c(C)c2)n(C)c1C	> 100 µM

## Input Tell me the measured CC50 of C#CCNC(=O)C(=O)c1c(C)c(C(=O)Nc2ccc(OC(F)(F)F)cc2)n(C)c1C , please.
## Output 3 µM

## Input Tell me the measured CC50 of C#CCNC(=O)C(=O)c1c(C)c(C(=O)Nc2cncnc2)n(C)c1C , please.
## Output > 100 µM

## Input Tell me the measured CC50 of C#CCNC(=O)C(=O)c1c(C)c(C(=O)Nc2ccccc2)n(C)c1C , please.
## Output > 100 µM

## Input Tell me the measured CC50 of Cc1c(C(=O)C(=O)N2CCOCC2)c(C)n(C)c1C(=O)Nc1ccc(F)c(F)c1 , please.
## Output 30 µM

## Input Tell me the measured CC50 of Cc1c(C(=O)C(=O)Nc2ccccc2)c(C)n(C)c1C(=O)Nc1ccc(F)c(F)c1 , please.
## Output > 100 µM

###

Experiment: Cellular toxicity assay in HepG2 cells
Assay type: cell-based
Conditions: human, read-out: Cytotoxicity
Description: The toxicity of the compounds was assessed in Vero, human PBM, CEM (human lymphoblastoid), MT-2, and HepG2 cells, as described previously (see Schinazi R. F., Sommadossi J.-P., Saalmann V., Cannon D. L., Xie M.-Y., Hart G. C., Smith G. A. & Hahn E. F. Antimicrob. Agents Chemother. 1990, 34, 1061-67). Cycloheximide was included as positive cytotoxic control, and untreated cells exposed to solvent were included as negative controls. […]
Readout kind: log10 CC50 (log10 of the value in µM)
Units before log transform: µM; reported quantity: CC50; transform: log10.

C=CCn1cc(CNC(=O)C(=O)c2c(C)c(C(=O)Nc3ccc(F)c(F)c3)n(C)c2C)nn1	1.99

## Input Tell me the measured log10 CC50 of Cc1c(C(=O)C(=O)Nc2nc3ccccc3[nH]2)c(C)n(C)c1C(=O)Nc1ccc(F)c(F)c1 , please.
## Output 0.85

## Input Tell me the measured log10 CC50 of C#CCNC(=O)C(=O)c1c(C)c(C(=O)Nc2cccc(OC(F)(F)F)c2)n(C)c1C , please.
## Output 1.94

## Input Tell me the measured log10 CC50 of Cc1c(C(=O)C(=O)NCc2nccn2C)c(C)n(C)c1C(=O)Nc1ccc(F)c(F)c1 , please.
## Output 1.92

## Input Tell me the measured log10 CC50 of Cn1cc(NS(=O)(=O)c2ccccc2)cc1C(=O)Nc1ccc(F)c(F)c1 , please.
## Output 1.64

## Input Tell me the measured log10 CC50 of C#CCNC(=O)C(=O)c1c(C)c(C(=O)Nc2ccc(F)c(Cl)c2)n(C)c1C , please.
## Output 1.92

## Input Tell me the measured log10 CC50 of CCN(CC)C(=O)C(=O)c1c(C)c(C(=O)Nc2ccc(F)c(F)c2)n(C)c1C , please.
## Output 1.88

## Input Tell me the measured log10 CC50 of Cc1c(C(=O)C(=O)N2CCN(C)CC2)c(C)n(C)c1C(=O)Nc1ccc(F)c(F)c1 , please.
## Output 1.95

## Input Tell me the measured log10 CC50 of Cc1c(C(=O)C(=O)N2CCOCC2)c(C)n(C)c1C(=O)Nc1ccc(F)c(F)c1 , please.
## Output 2.00

## Input Tell me the measured log10 CC50 of Cc1c(C(=O)C(=O)NCC#N)c(C)n(C)c1C(=O)Nc1ccc(F)c(F)c1 , please.
## Output 1.85

## Input Tell me the measured log10 CC50 of Cc1c(C(=O)C(=O)NCc2c[nH]nn2)c(C)n(C)c1C(=O)Nc1ccc(F)c(F)c1 , please.
## Output 1.93

## Input Tell me the measured log10 CC50 of Cc1c(C(=O)C(=O)Nc2nccs2)c(C)n(C)c1C(=O)Nc1ccc(F)c(F)c1 , please.
## Output 1.92

## Input Tell me the measured log10 CC50 of C#CCNC(=O)C(=O)c1c(C)c(C(=O)Nc2ccc(S(F)(F)(F)(F)F)cc2)n(C)c1C , please.
## Output 1.63

## Input Tell me the measured log10 CC50 of Cc1c(C(=O)C(=O)Nc2ccccc2)c(C)n(C)c1C(=O)Nc1ccc(F)c(F)c1 , please.
## Output 1.77
